- System: KM12 colon
- protocol.details: NCI tumour cell line growth inhibition, 48 h; in the data active = GI50 below about 0.43 µM; inactive = the rest
Choose the fitting class; nothing outside active, inactive is accepted.

Please review the entries below; each comes with its answer.
CC(C)=CCc1cc2c(cc1O)C1=C(C(=O)C3=C(C1=O)S(=O)(=O)CCN3)C(C=C(C)C)O2 (stereo unspecified) : inactive
NC(=O)c1ccc2c(c1)-c1nc-2nc2[n-]c(nc3nc(nc4[n-]c(n1)c1ccc(C(N)=O)cc41)-c1ccc(C(N)=O)cc1-3)c1ccc(C(N)=O)cc21.[Co+2] : inactive
O=C1CC(c2c[nH]c3ccc(F)cc23)C(=O)N1 (stereo unspecified) : inactive
CN(C)c1ccc(/C=C\c2ccnc3ccccc23)cc1 : inactive
C=C1C(=O)O[C@H]2[C@H]1CC/C(COC(=O)c1cc(OC)c(OC)c(OC)c1)=C\CC[C@@]1(C)O[C@@H]21 : inactive

Prompt: Test call, this molecule: `COc1cc(-c2cc(/C=C/C(=O)c3ccc(F)c(F)c3)[nH]n2)cc(OC)c1OC`
Completion: inactive

Prompt: Status in this test for `CN1CCN(CC(=O)N(C)c2ccc(N=C(c3ccccc3)c3c(O)[nH]c4ccc(C#N)cc34)cc2)CC1` ?
Completion: active

Prompt: Recorded test outcome, item `Cn1cc(/C=C\[N+](=O)[O-])c2ccccc21`
Completion: inactive

Prompt: Short answer needed: outcome of this test for `CCOC(=O)CSc1cc(Cl)c(C)cc1S(=O)(=O)/N=C(/N=C/c1ccc([N+](=O)[O-])s1)NNC` ?
Completion: inactive

Prompt: Hi, sorry to bother you, what did the test record for COC1(CC[C@@H](C)COC2OC(CO)C(O)C(O)C2O)O[C@H]2C[C@H]3[C@@H]4CC=C5C[C@@H](OC6OC(CO)C(OC7OC(C)C(O)C(O)C7O)C(O)C6OC6OC(C)C(O)C(O)C6O)CC[C@]5(C)[C@H]4CC[C@]3(C)[C@H]2[C@@H]1C (stereo partly specified) ?
Completion: inactive

Prompt: Record request — test call for `C#Cc1cccc(Nc2ncnc3cc(NC(=O)CCl)ccc23)c1`
Completion: inactive

Prompt: Identify the outcome logged in this assay for the molecule shown: `CN=C(N)c1ccc(N=C(N)c2ccc(-c3ccc(C(N)=Nc4ccc(C(N)=NC)cc4)cc3)cc2)cc1`
Completion: inactive

Prompt: # outcome recorded in this test, key = `O=C1/C(=C/c2ccc(Cl)c(Cl)c2)CN(C(=O)C(Cl)Cl)C/C1=C\c1ccc(Cl)c(Cl)c1`
Completion: active

Data origin: PubChem BioAssay (NCI)
